System: IGROV1 ovarian
Assay: NCI-60 one-dose screen, 48 h (100 = growth as untreated, 0 = no growth, -100 = all killed)
Conditions: 10 µM
About 83,000 compounds went through this panel and 20% of them were active in at least one assay; those are over-represented in the sample as a whole.
observable: growth (%)
Answers are plain numbers, in %.

Please review the following examples before continuing.
* Cc1cc(N2CCC(N3CCCC3)CC2)nc(/N=C(\N)Nc2ccc(Cl)c(Cl)c2)n1 | 12.3
* COC(=O)Nc1cccc(Cl)c1OC | 110
* O=C(Cc1ccc(OCc2ccccc2)cc1)NCc1ccc2c(c1)OCO2 | 60.4
* CN(C)c1ccc(CNC(C(=O)c2ccccc2)c2ccccc2)cc1 (configuration not stated) | 98.2
* COC(=O)/C=C\C(=O)OC | 113
* Cc1cc(C(C)(C)C)cc(C)c1Br | 112
* CCCCCCCCCCCCCCCCC1CC(=O)OC1=O (configuration not stated) | 124
* CC(C)NC(=O)OCc1c(COC(=O)NC(C)C)c(-c2ccc(Cl)c(Cl)c2)n2c1SCC2 | 3.1
* CCC(=O)Oc1ccc(OC)cc1 | 93.1
* CC(=O)c1ccc(C(C)(C)C)cc1 | 96.7

Take each entry in turn and give its growth.
1. FC(F)(F)c1ccc2c(c1)N(CCCN1CCN(C3CC3)CC1)c1ccccc1S2
2. Cc1ccc(C(=O)N/N=C/c2ccc3c(c2)OCO3)cc1

Response line:
1: 50.2; 2: 105

* * *

Kindly supply the reported growth values for the records listed here.
Tested on: SK-OV-3 ovarian
Assay: NCI-60 one-dose screen, 48 h (100 = growth as untreated, 0 = no growth, -100 = all killed)
Details: 10 µM
About 83,000 compounds went through this panel and 20% of them were active in at least one assay; those are over-represented in the sample as a whole. Active and inactive are the calls of the source. How the source made its calls: active means growth percent below 10; inactive means the rest.

Please review the following examples before continuing.
• CC1NC(=O)NC1CCCCCC(=O)O (centres undefined) = 109% (inactive)
• CC(=O)N(C)c1ccc([N+](=O)[O-])cc1 = 106% (inactive)
• NC(=S)N/N=C/c1ccc(N)cc1 = 100% (inactive)

Take each entry in turn and give its growth.
1. O=[N+]([O-])c1cccc(N=Nc2ccc(O)cc2O)c1
2. CC(C)(C)c1cc(O)c(C(C)(C)C)cc1O
3. CCCCOC(=O)c1ccc(C(C)C)cc1
4. OC1CCCc2ccccc21 (centres undefined)
5. CCCCOC(OCCCC)c1ccccc1
6. Cc1cccc(CO)c1

Response line:
1: 101% (inactive); 2: 125% (inactive); 3: 90.4% (inactive); 4: 98.7% (inactive); 5: 115% (inactive); 6: 107% (inactive)

Take each entry in turn and give its growth.
1. N#Cc1ccc(OC(=O)Nc2ccc(Cl)c(Cl)c2)cc1
2. Cc1cc(N2CCC(N3CCCC3)CC2)nc(/N=C(\N)Nc2ccc(Cl)c(Cl)c2)n1
3. C/C(=N\NC(=O)c1ccccc1N)c1ccccc1O
4. CCC(O)CC(CC)CO (centres undefined)
5. C[N+](C)(C)C(=O)c1ccccc1

Response line:
107% (inactive)
88.3% (inactive)
58.3% (inactive)
115% (inactive)
104% (inactive)

Take each entry in turn and give its growth.
1. O=C(O)c1ccccc1NCc1ccco1
2. CCC(C)(C)C1CCC(O)CC1 (centres undefined)
3. O=c1cc(-c2ccccc2)[nH]c(=S)[nH]1
4. CCCCC(=O)c1ccc(OC)cc1
5. Cc1ccc(Cl)cc1N1C(=O)CC(Sc2ccccc2N)C1=O (centres undefined)
6. C=CC[N+](C)(C)C
7. Cc1ccc(Cl)cc1NC(=O)N(C)CCO
8. CCCCCCCCO

Response line:
["109% (inactive)", "103% (inactive)", "113% (inactive)", "111% (inactive)", "102% (inactive)", "108% (inactive)", "114% (inactive)", "111% (inactive)"]
